The reported numbers originate from the supplement of paper PMC7125110.

Item-by-item account of self-cleavage kobs at 10000 uM GlcN6P
B1: glmS ribozyme (parent)
chain: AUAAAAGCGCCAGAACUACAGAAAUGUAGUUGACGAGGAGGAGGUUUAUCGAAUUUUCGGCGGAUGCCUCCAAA

Variants of: B1
run description: self-cleavage kobs at 10000 uM GlcN6P; higher = faster cleavage; RNA array
experimental context: with glucosamine-6-phosphate
This sample holds only a part of the variants without activity.
State just the number; it will be interpreted in s⁻¹.

These recorded examples may help you get a feel for the data.
primary sequence: AUAAAAGCGCCAGAACUACAGAAAUGUAGUUGUCGAGGAGAAGGUUUAUCGAAGUUUCGGCGGAUGCCUCCAAA
readout: self-cleavage kobs at 10000 uM GlcN6P
units of measure: s⁻¹
reported: 2.88e-05
--
primary sequence: AUAAAAGCGCCAGAAUUACAGAAAUGUAGUUGACGAGGAGUAGGUUAAUCGAAUUUUCGGCGGAUGCCUCCAAA
readout: self-cleavage kobs at 10000 uM GlcN6P
units of measure: s⁻¹
reported: 0.000489
--
primary sequence: AUAAAAGCGCCAGUACUACAGAAAUGUAGUUGACGUGGAGGAGGUUUAUUGAAUUUUCGGCGGAUGCCUACAAA
readout: self-cleavage kobs at 10000 uM GlcN6P
units of measure: s⁻¹
reported: 7.4e-05
--
primary sequence: AUAAAAGCGCCAGAUCUACAGAAAUGUAGUUGACGAGGAGGAGGUUUAUCGAAUUUUCGGCGGAUGCCACCAAA
readout: self-cleavage kobs at 10000 uM GlcN6P
units of measure: s⁻¹
reported: 5.39e-05

Qu. Recorded self-cleavage kobs at 10000 uM GlcN6P of "AUAAAAGCGCCAGAACUACAGAAAUGUAGUGGACGAAGAGGAGGUUUAUCGAAUUUUCGGCGGAUGUCUCCAAA" , please.
Ans. 0.000189

Qu. Give its self-cleavage kobs at 10000 uM GlcN6P value. Item: "AUAAAAGCGCCAGAAAUACAGAAAUAUAGUUGACGAGGAGGAGGUUUAUCGAAUUUUCGGCGGAUGCGUCCAAA"
Ans. 3.65e-05
